# System: Mus musculus
# assay_overview: Ratio of ED50 for santihypothermic activity in po dosed NMRI mouse to ED50 for antihypothermic activity in ip dosed NMRI mouse
# Assay type: functional
Exercise: state measured Ratio ED50 for each of the molecules provided.

Query string: # query: Ratio ED50 of entry c1ccc2c(c1)C[C@]1(c3c[nH]cn3)C[C@H]21 (stereo in doubt; 1)
Result string: 4

Query string: For the molecule shown here, CO[C@H]1c2ccccc2[C@H]2C[C@]21c1c[nH]cn1 (stereo in doubt; (+)-3) , give the reported Ratio ED50.
Result string: 2.3

Query string: Give its Ratio ED50 value. Item: c1ccc2c(c1)[C@H]1C[C@@]1(c1c[nH]cn1)C21CC1 (stereo in doubt; (+)-10)
Result string: 2.8

Query string: Data request, read-out Ratio ED50, for CCC[C@H]1[C@@H]2c3ccccc3C[C@]12c1c[nH]cn1
Result string: 3.3

Query string: State the recorded Ratio ED50 for this entry: CCC1(c2c[nH]cn2)Cc2ccc(F)cc2C1 (stereo not given)
Result string: 4

###

# System: Mus musculus
# assay_overview: Antihypothermic activity in ip dosed NMRI mouse assessed as inhibition of guanabenz-induced hypothermia administered 5 mins before guanabenz challenge measured after 25 mins
# Type: functional
# particulars: Mus musculus, NMRI, ip; read-out: ED50
readout: ED50 (mg/kg)
Give just the numeric value; mg/kg need not be written.

Query string: Which value of ED50 has been reported for CC[C@H]1c2ccccc2[C@H]2C[C@]21c1c[nH]cn1 (relative stereo) in the records?
Result string: 0.03

Query string: Look up ED50 for this compound: CCC[C@H]1c2ccccc2[C@H]2C[C@]21c1c[nH]cn1 (relative stereo)
Result string: 0.1

Query string: Find the recorded ED50 belonging to CC1(C)C2c3ccccc3C[C@@]21c1c[nH]cn1 (single isomer, unassigned) and report it.
Result string: 0.07

Query string: Give the measured ED50 of CCO[C@H]1c2ccccc2[C@H]2C[C@]21c1c[nH]cn1 (relative stereo) .
Result string: 0.16

Query string: Could you tell me which ED50 is on file for C[C@H]1c2ccccc2[C@H]2C[C@]21c1c[nH]cn1 (relative stereo) ?
Result string: 0.006

Query string: Tell me the measured ED50 of CCC[C@H]1[C@@H]2c3ccccc3C[C@]12c1c[nH]cn1 , please.
Result string: 0.1

Query string: Which ED50 is reported for this compound? CCCO[C@H]1c2ccccc2[C@H]2C[C@]21c1c[nH]cn1 (relative stereo)
Result string: 0.29

Query string: Name the reported ED50 value associated with the compound CCC1(c2c[nH]cn2)Cc2ccccc2C1 [ATIPAMEZOLE]
Result string: 0.19

Query string: Given the entry C[C@]12CC1(c1c[nH]cn1)Cc1ccccc12 (single isomer, unassigned) , report its measured ED50.
Result string: 0.06

Query string: Fill blank: measured ED50 of the compound C[C@H]1[C@@H]2c3ccccc3C[C@]12c1c[nH]cn1 is ____.
Result string: 0.06

Query string: Which ED50 is reported for this compound? CCC1(c2c[nH]cn2)Cc2ccc(F)cc2C1 (stereo unspecified) [FIPAMEZOLE]
Result string: 0.47

###

# target_or_test_system: Alpha-2C adrenergic receptor (Homo sapiens, UniProt P18825)
# Sequence (P18825 whole entry): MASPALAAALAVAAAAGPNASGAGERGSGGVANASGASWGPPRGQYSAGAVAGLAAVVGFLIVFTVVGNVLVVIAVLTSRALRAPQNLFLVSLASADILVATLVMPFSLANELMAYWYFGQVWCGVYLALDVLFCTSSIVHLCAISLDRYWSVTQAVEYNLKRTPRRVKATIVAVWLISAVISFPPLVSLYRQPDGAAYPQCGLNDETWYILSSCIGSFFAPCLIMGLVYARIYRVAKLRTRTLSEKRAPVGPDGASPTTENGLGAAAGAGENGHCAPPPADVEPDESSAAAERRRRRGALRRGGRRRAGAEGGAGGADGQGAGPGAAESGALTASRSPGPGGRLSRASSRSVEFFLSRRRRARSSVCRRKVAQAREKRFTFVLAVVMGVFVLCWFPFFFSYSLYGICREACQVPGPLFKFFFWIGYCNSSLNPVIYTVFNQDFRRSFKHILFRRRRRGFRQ
Provide the reported Ki of each item.
Use nM as the unit, but write only the number.

Query string: Param item = c1ccc2c(c1)[C@H]1C[C@@]1(c1c[nH]cn1)C21CC1 (stereo in doubt; (+)-10) ; retrieve measured Ki.
Result string: 2.14

Query string: Need Ki of C[C@H]1[C@@H]2c3ccccc3C[C@]12c1c[nH]cn1 , thanks.
Result string: 0.295

Query string: Reported Ki, compound CC[C@H]1c2ccccc2[C@H]2C[C@]21c1c[nH]cn1 (relative stereo) : ____
Result string: 1.26

Query string: Which Ki reading was recorded for the compound CCO[C@H]1c2ccccc2[C@H]2C[C@]21c1c[nH]cn1 (relative stereo) ?
Result string: 10.2

Query string: Recorded Ki for CO[C@H]1c2ccccc2[C@H]2C[C@]21c1c[nH]cn1 (stereo in doubt; (+)-3) , please?
Result string: 1.95

Query string: Consider the compound shown here: CCC[C@H]1[C@@H]2c3ccccc3C[C@]12c1c[nH]cn1 What is its recorded Ki?
Result string: 0.437

Query string: If you can, please state the reported Ki value of CO[C@H]1c2ccccc2[C@H]2C[C@]21c1c[nH]cn1 (relative stereo) .
Result string: 5.75

Query string: Could you share which Ki value was measured for c1ccc2c(c1)[C@H]1C[C@@]1(c1c[nH]cn1)C21CC1 (stereo in doubt; (-)-10) ?
Result string: 20.4

Query string: Would you kindly share the measured Ki for CCCO[C@H]1c2ccccc2[C@H]2C[C@]21c1cnc[nH]1 (relative stereo) ?
Result string: 1.55
